- Test system: Pasteurella multocida PM 10775 (080130003051, BRD field isolate)
- METHOD SUMMARY: MIC, broth-microdilution (CLSI VET01-A4), strain PM 10775
- Type: cell-based
- ASSAY CONTEXT: Pasteurella multocida strain PM 10775, broth-microdilution; unit assumed
READOUT NAME: MIC PM 10775 (µg/mL)

>>> print(df.to_string())
                                   molecule                             system_tested  readout_name  unit_tag  data_value
0  CON=C(C)[C@H](NC(=O)c1ccc(C#Cc2ccc(CN3CCCC3)cc2)cc1)C(=O)NO  Pasteurella multocida PM 10775 (080130003051, BRD field isolate)  MIC PM 10775     µg/mL         3.1

(1) CC(=O)C(NC(=O)c1ccc(C#Cc2ccc(CNCc3ccncc3)cc2)cc1)C(=O)NO (stereo not shown)
(2) CC(C)([C@H](NC(=O)c1ccc(C#Cc2ccc(CNCC#N)nc2)cc1)C(=O)NO)S(C)(=O)=O
Ask: Larger number for MIC PM 10775: 1 , or 2 ? Answer by quoting the chosen item's label.
Reply: 1
(1: 3.1 µg/mL, 2: 0.4 µg/mL)
